study.target: T1, human IL-5 with his-tag (rhIL-5-his) (human, UniProt P05113 20-134)
T1 construct: It was expressed in HEK293 and purified from the supernatant; also called HuIL-5; recombinant human IL-5
T1 sequence: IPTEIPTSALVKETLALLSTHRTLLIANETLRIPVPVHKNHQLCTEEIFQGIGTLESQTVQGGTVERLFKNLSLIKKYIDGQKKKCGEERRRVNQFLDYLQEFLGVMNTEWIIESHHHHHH
assay.explanation: Biacore T200, antibody captured on protein A chip, antigen in flow, 1:1 Langmuir
readout.label: log10 Kd (log10 of the value in nM)
Remember, log10 of Kd, in nM.

Input line: Param item = h1705-011 (antibody, human IgG1, kappa, V domains shown) VH: EVQLVESGGGLVQPGGSLRLSCAASGFTFSHYYMAWVRQAPGKGLEWVTSISYEGDITYYGDSVKGRFTISRDNSKNTLYLQMNSLRAEDTATYYCASQTLRESFDYWGQGTLVTVSS VL: DIQMTQSPSSVSASVGDRVTITCRASQDIANYLSWYQQKPGKSPKLVIYGTSNLEVGVPSRFSGSRSGSDYTLTISSLQPEDFATYFCLQDKEFPRTFGGGTKVEIKR ; retrieve measured log10 Kd.
Output line: -1.64

Input line: Param item = h1705-003 (antibody, human IgG1, kappa, V domains shown) VH: EVQLVESGGGLVQPGGSLRLSCAASGFTFSHYYMAWVRQAPGKGLEWVSSISYEGDITYYGDSVKGRFTISRDNSKNTLYLQMNSLRAEDTAVYYCAKQTLRESFDYWGQGTLVTVSS VL: DIQMTQSPSSVSASVGDRVTITCRASQDIANYLSWYQQKPGKAPKLLIYGTSNLEVGVPSRFSGSGSGTDFTLTISSLQPEDFATYYCLQDKEFPRTFGGGTKVEIKR ; retrieve measured log10 Kd.
Output line: 0.53

Input line: Param item = h1706-003 (antibody, human IgG1, kappa, V domains shown) VH: EVQLVESGGGLVQPGGSLRLSCAASGFTFSHYYMAWVRQAPGKGLEWVSSINYEGNSAYYGDSVKGRFTISRDNSKNTLYLQMNSLRAEDTAVYYCATETLRESLDYWGQGTMVTVSS VL: DIQMTQSPSSVSASVGDRVTITCRASQDIGNYLSWYQQKPGKAPKLLIYSASNLEVGVPSRFSGSGSGTDFTLTISSLQPEDFATYYCLQHKQFPRTFGGGTKVEIKR ; retrieve measured log10 Kd.
Output line: -1.72

Input line: Param item = h1706-009 (antibody, human IgG1, kappa, V domains shown) VH: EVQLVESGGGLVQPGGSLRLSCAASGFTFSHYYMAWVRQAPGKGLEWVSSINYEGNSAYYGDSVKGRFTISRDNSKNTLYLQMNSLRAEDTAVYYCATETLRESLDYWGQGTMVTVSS VL: DIQMTQSPSSVSASVGDRVTITCRASQDIGNYLSWYQQKPGKSPKLMIYSASNLEVGVPSRFSGSGSGTDYTLTISSLQPEDFATYFCLQHKQFPRTFGGGTKVEIKR ; retrieve measured log10 Kd.
Output line: -1.26

Input line: Param item = h1705-010 (antibody, human IgG1, kappa, V domains shown) VH: EVQLVESGGGLVQPGGSLRLSCAASGFTFSHYYMAWVRQAPGKGLEWVSSISYEGDITYYGDSVKGRFTISRDNSKNTLYLQMNSLRAEDTAVYYCASQTLRESFDYWGQGTLVTVSS VL: DIQMTQSPSSVSASVGDRVTITCRASQDIANYLSWYQQKPGKSPKLVIYGTSNLEVGVPSRFSGSRSGSDYTLTISSLQPEDFATYFCLQDKEFPRTFGGGTKVEIKR ; retrieve measured log10 Kd.
Output line: -1.69
